- Test system: CHRF288-11
- measurement-protocol: cells
- Parameters: species or system AML cell lines (8); Secondary HTS, 10-point dose-response in triplicate, Cell Titer Glo viability, four-parameter fit EC50
- experimental-setup: 72 h, read-out: CHRF288-11
Please provide measured EC50 for the entries that follow.

Query string: Please report the recorded EC50 for NC(=O)c1cccc2ncc(-c3ccc(Cl)cc3)nc12 [SJ000784278, PARP INHIBITOR XII] .
Result string: > 10 µM

Query string: Please report the recorded EC50 for CC(C)c1nc(N(C)S(C)(=O)=O)nc(-c2ccc(F)cc2)c1/C=C/[C@@H](O)C[C@@H](O)CC(=O)O [ROSUVASTATIN] .
Result string: > 10 µM

Query string: Please report the recorded EC50 for CC(C)Oc1ccc(C(=O)N[C@H](CNC(=O)CN(C)C)Cc2ccc(-c3cn4cccc([C@H](C)O)c4n3)cc2)cc1Cl [GSK-923295] .
Result string: > 10 µM

Query string: Please report the recorded EC50 for CS(=O)(=O)c1ccc(-c2cnc(N)c(C(=O)Nc3ccccc3)n2)cc1 [VE-821] .
Result string: > 10 µM

Query string: Please report the recorded EC50 for COc1cc(CCc2cc(NC(=O)c3ccc(N4C[C@@H](C)N[C@@H](C)C4)cc3)n[nH]2)cc(OC)c1 [AZD4547] .
Result string: > 10 µM

Query string: Please report the recorded EC50 for COc1ccc(Cl)c(Nc2nc3ccccc3nc2NS(=O)(=O)c2cccc(NC(=O)C(C)(C)N)c2)c1 [XL147] .
Result string: > 10 µM

Query string: Please report the recorded EC50 for CNC(=O)c1cc(Oc2ccc(NC(=O)Nc3ccc(Cl)c(C(F)(F)F)c3)cc2)ccn1 [Sorafenib] .
Result string: > 10 µM

Query string: Please report the recorded EC50 for COc1cc(N2CCC(N3CCN(C)CC3)CC2)ccc1Nc1ncnc(Nc2ccccc2S(=O)(=O)C(C)C)n1 [ASP3026] .
Result string: > 10 µM

Query string: Please report the recorded EC50 for Cc1nc(C(=O)NCC(=O)O)c(O)c2ccc(Oc3ccccc3)cc12 [FG-4592] .
Result string: > 10 µM

Query string: Please report the recorded EC50 for Cc1ncc(CNC(=O)N(CCCl)N=O)c(N)n1 [NIMUSTINE] .
Result string: > 10 µM

Query string: Please report the recorded EC50 for CCCC(=O)OCOC(=O)C(C)(C)C [PIVANEX] .
Result string: > 10 µM

Query string: Please report the recorded EC50 for N[C@@H]1C[C@H]1c1cc(F)cc(F)c1OCc1ccccc1 [SJ000785902, S2101] .
Result string: > 10 µM

Query string: Please report the recorded EC50 for c1ccc2c(-c3cnn4cc(-c5ccc(N6CCNCC6)cc5)cnc34)ccnc2c1 [SJ000834146, LDN-193189] .
Result string: 0.36 µM

Query string: Please report the recorded EC50 for COc1ccc([C@@]23Oc4cc(OC)cc(OC)c4[C@]2(O)[C@H](O)[C@H](C(=O)N(C)C)[C@H]3c2ccccc2)cc1 [SJ000834151, ROCAGLAMIDE A] .
Result string: 0.014 µM

Query string: Please report the recorded EC50 for CC(C)Oc1ccc(-c2cnc3c(-c4ccnc5ccccc45)cnn3c2)cc1 [SJ000796016, DMH-1] .
Result string: > 10 µM

Query string: Please report the recorded EC50 for CCN1CCN(CC(=O)Nc2ccc(-c3cccc4c(=O)cc(N5CCOCC5)oc34)c3sc4ccccc4c23)CC1 [SJ000834141, KU-0060648] .
Result string: 0.78 µM

These data points were gathered from paper PMC6522510.
